Biological target: human GLP-1 receptor (human, UniProt P43220 24-463)
Sequence (P43220 24-463): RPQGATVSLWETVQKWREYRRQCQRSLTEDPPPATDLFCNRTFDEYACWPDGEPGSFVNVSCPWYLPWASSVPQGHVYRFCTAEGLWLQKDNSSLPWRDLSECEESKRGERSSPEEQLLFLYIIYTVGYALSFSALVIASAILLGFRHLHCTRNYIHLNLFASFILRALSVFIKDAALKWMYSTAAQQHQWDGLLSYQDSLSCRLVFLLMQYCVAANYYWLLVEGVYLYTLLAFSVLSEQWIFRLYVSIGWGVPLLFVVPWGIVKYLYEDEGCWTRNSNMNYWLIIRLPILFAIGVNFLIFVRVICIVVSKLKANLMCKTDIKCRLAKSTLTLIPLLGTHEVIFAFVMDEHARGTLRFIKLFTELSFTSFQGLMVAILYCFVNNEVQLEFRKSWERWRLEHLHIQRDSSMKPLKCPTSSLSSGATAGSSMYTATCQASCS
Assay: cell-based or functional assay
Numbered stars: 1 amine (or outer) side, 2 acyl side, 3 side chain; on linkers, the order of the positions; unused ones are H or OH. Side chains are listed from the residue outwards. Ends that are not written are not given here. * marks the point of attachment. γGlu = O=C(O)[C@H](CCC(=O)[*:2])N[*:1]; Palmitoyl = CCCCCCCCCCCCCCCC(=O)*; Ahx = NCCCCCC(=O)O; βAla = NCCC(=O)O
Each entry below lists one item and its recorded cAMP EC50 (assay 1) value.

# BINDER, cAMP EC50 (assay 1) [nM]
data = [
    ("HSQGTFTSDYSEYLDSK([γGlu-Palmitoyl])RARDFVAWLERGG-NH2 (not fully specified) [g772]", 0.292),
    ("HSQGTFTSDYSKYLDSRRAQDFVQWLVAGGGGGG-NH2 [g315]", 0.0273),
    ("HSQGTFTSDYSEYLDSK([Ahx-Palmitoyl])RARDFVAWLERGG-OH (not fully specified) [g826]", 0.0293),
    ("HSQGTFTSDYSEYLDSK([Ahx-Palmitoyl])RAADFVAWLERGG-NH2 (not fully specified) [g818]", 0.021),
    ("HSQGTFTSDYSKYLDSRAAQK([Ahx-Palmitoyl])FVQWLERGG-NH2 (not fully specified) [g806]", 0.171),
    ("HSQGTFTSDYSEYLDSK([Ahx-Palmitoyl])RARDFVEWLERGG-NH2 (not fully specified) [g771]", 0.0175),
    ("HSQGTFTSDYSEYLDSK([βAla-Palmitoyl])RARDFVAWLERGG-NH2 (not fully specified) [g795]", 0.0734),
    ("HSQGTFTSDYSKYLDSRRAQDFVQWLVAGGSSGGSS-NH2 [g316]", 0.0314),
    ("HSQGTFTSDYSKYLDSRRAQDFVQWLVAGGSSGGSSK-NH2 [g317]", 2.63),
    ("HSQGTFTSDYSKYLDSRRAQDFVQWLVAGGKNNRNNIAK-NH2 [g321]", 0.0272),
    ("HSQGTFTSDYSKYLDSERARDFVAWLEAGG-NH2 [g840]", 0.145),
    ("HSQGTFTSDYSEYLDSK([Ahx-Palmitoyl])RARDFVEWLENT-NH2 (not fully specified) [g825]", 0.0191),
    ("HSQGTFTSDYSKYLDSRRAQDFVQWLVAGGGGGGK-NH2 [g325]", 0.0261),
    ("HSQGTFTSDYSKYLDSERAK([Ahx-Palmitoyl])DFVAWLERGG-NH2 (not fully specified) [g787]", 6.65),
    ("HXQGTFTSDYSKYLDSKRAQDFVQWLVAGG (Aib at 2 (written X); K(gE-palm) at 17; C-terminal amide) [g384]", 0.0272),
    ("HSQGTFTSDYSEYLDSK([Ahx-Palmitoyl])RARDFVAWLERGG-NH2 (not fully specified) [g794]", 0.0157),
    ("HSQGTFTSDYSKYLDSRRAQDFVQWLVAGGSGSGSG-NH2 [g402]", 0.0857),
    ("HSQGTFTSDYSKYLDSRRAQDFVQWLVAGGGGGGK([γGlu-Palmitoyl])-NH2 [g327]", 0.0193),
]

Recorded values, source patent US20190185537A1.
